tested on: Fer (mouse); test: phosphorylation enrichment, bacterial display (enrichment ratio); higher = better substrate or ligand; peptides without Tyr show the background;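 further: 11-residue human phosphosite peptides and single-mutation variants displayed on the E. coli surface, counted by deep sequencing, each peptide's frequency after selection divided by its frequency in the unselected input library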;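 further: frequency after pTyr selection over input frequency; kinase dosed for 20-30% of maximal phosphorylation in three min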
Examples of sequences with documented phosphorylation enrichment follow.
Enter a number only.

Below, each entry is followed by its recorded phosphorylation enrichment result.
TFHNTYHSQMR [IL1RAPL1_Y615]; 0.466
KNITEYCRHLI [RECQL_Y492_D495H]; 0.533
VECHPYFTQPK [AKR1D1_Y199]; 0.421
SLNAVYPKAGS [OAS3_Y376_R378K]; 0.412
MASISYDFCRV [BST2_Y6_T4I_YF]; 1.59
ASTDYYKRGDF [PDHA1_Y243]; 0.321
TNFCLYLRSLE [MTM1_Y71_R69C_YF]; 0.847
MDDKEYYSVHN [MET_Y1234_Y1230D]; 0.54

Please look up its phosphorylation enrichment: KASGKYYAMKI [AKT3_Y173]
0.335

Please look up its phosphorylation enrichment: WLFFRYLAIGC [ATP2A2_Y836]
0.573

Please look up its phosphorylation enrichment: CRAVKYLQMVD [AVPR2_Y117_G122D]
0.419

Please look up its phosphorylation enrichment: KASRKYYAMKI [AKT3_Y173_G171R]
0.589

Please look up its phosphorylation enrichment: KQINDYVEKGT [SERPINA1_Y184]
0.536

====

molecular target: EPHB1 (UniProt P54762); assay: phosphorylation enrichment, bacterial display (enrichment ratio); higher = better substrate or ligand; peptides without Tyr show the background
Sequence (P54762 whole entry, looked up): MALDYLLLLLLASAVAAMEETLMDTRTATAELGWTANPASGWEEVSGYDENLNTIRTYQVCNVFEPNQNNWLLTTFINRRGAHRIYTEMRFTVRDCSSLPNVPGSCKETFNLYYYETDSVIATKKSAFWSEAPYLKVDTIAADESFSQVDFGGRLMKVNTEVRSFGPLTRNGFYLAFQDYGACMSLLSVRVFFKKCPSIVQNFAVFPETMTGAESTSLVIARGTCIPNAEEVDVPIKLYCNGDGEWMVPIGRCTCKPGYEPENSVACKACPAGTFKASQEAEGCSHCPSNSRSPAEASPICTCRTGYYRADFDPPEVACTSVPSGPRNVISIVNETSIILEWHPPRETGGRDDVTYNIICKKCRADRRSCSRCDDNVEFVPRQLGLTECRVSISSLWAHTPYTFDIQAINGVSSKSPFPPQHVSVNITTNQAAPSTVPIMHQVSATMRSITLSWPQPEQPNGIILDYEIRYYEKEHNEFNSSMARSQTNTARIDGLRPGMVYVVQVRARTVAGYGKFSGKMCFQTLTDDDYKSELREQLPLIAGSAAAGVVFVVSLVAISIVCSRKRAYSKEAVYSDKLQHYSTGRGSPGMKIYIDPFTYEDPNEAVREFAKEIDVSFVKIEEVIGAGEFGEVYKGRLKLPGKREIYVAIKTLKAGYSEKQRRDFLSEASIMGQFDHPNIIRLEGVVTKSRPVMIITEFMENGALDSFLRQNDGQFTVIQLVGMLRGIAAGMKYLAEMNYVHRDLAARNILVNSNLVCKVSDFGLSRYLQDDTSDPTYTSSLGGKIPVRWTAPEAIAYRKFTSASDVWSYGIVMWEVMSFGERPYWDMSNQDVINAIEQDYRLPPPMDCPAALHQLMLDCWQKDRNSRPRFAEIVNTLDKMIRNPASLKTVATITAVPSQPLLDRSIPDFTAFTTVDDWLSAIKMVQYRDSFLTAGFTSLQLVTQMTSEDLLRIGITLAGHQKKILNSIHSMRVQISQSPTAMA
Examples of sequences with documented phosphorylation enrichment follow.

Below, each entry is followed by its recorded phosphorylation enrichment result.
LINSVYGCSRQ [TMPRSS6_Y290_T287N]; 1.01
SSEYHYVGGFY [CTSC_Y347]; 9.7

Please look up its phosphorylation enrichment: QGCGIYKDFFR [PLA2G2D_Y82_S80G_YF]
0.548

Please look up its phosphorylation enrichment: IRTDAYVQAMT [RPE65_Y89_R91Q]
0.378

Please look up its phosphorylation enrichment: NDKLRYEVSSP [CDH13_Y66]
0.473

Please look up its phosphorylation enrichment: PRAEWYRDDVL [MYOM2_Y317]
0.959

Please look up its phosphorylation enrichment: YETVKYINNER [ABCB7_Y345_F346I]
0.73

Please look up its phosphorylation enrichment: LGQRIYQYIQS [DYRK1B_Y271]
20.9

Please look up its phosphorylation enrichment: LFLACYFIGGG [UBD_Y161_C162F]
0.773

====

Examples of sequences with documented phosphorylation enrichment follow.
biological target: Fes (UniProt P07332); test: phosphorylation enrichment, bacterial display (enrichment ratio); higher = better substrate or ligand; peptides without Tyr show the background
Sequence (P07332 whole entry, looked up): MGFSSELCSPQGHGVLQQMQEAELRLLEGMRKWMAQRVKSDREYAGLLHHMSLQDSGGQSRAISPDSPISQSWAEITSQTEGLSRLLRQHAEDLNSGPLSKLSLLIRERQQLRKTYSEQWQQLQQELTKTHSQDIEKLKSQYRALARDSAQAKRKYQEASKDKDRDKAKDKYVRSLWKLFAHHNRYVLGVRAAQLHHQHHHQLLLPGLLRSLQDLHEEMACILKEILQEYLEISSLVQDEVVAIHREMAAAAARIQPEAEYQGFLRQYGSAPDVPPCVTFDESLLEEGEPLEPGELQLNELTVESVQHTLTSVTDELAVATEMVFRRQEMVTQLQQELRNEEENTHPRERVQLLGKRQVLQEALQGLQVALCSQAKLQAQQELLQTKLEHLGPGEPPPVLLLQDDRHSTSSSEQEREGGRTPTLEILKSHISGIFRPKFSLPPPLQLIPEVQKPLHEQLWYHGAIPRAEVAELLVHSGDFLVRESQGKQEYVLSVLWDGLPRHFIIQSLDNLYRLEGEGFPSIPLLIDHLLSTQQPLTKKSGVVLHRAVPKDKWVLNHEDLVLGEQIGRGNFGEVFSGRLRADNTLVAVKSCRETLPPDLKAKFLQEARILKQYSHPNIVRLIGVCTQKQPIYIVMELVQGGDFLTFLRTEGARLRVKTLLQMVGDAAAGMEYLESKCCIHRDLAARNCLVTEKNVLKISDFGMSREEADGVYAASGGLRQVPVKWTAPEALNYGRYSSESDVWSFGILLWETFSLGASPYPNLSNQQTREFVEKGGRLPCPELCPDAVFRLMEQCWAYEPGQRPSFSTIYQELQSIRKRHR
Enter a number only.

Below, each entry is followed by its recorded phosphorylation enrichment result.
LLVVLCKYRCY [PSEN1_Y154_Y154C]; 1.01
GPGSGYTNIMR [PKLR_Y564_R559G]; 0.496
CYCSWYRGWAP [TIMP3_Y195_G190C]; 1.08

Please look up its phosphorylation enrichment: TKFRNYLIPKG [CYP2C8_Y379]
0.565

Please look up its phosphorylation enrichment: ESMLRYDVFGG [STOX1_Y607_E608D_YF]
0.846

Please look up its phosphorylation enrichment: RYVTRYIYNRE [HLA-DQB1_Y62]
1.18

Please look up its phosphorylation enrichment: SVTGTYSPALN [TP53_Y126_C124G]
0.769

Measured values drawn from the supplement of paper PMC10065799 for this set.
